Values compiled from PubChem BioAssay (NCI).

Experiment: NCI Yeast Anticancer Drug Screen. Data for the mlh1 rad18 strain (AID 175)
Conditions: S. cerevisiae mlh1 rad18 strain growth inhibition; at 50.0 µM; active compounds read high
About 79,000 compounds went through this panel and 15% of them were active in at least one assay; those are over-represented in the sample as a whole.
Each entry below carries its recorded growth inhibition.
reported-metric: growth inhibition (%)

>>> reported("CCCCNC(=O)OCC")
5.9
>>> reported("CCc1cccc(CC)c1Nc1nc(C)nc2c1cnn2C")
3.95
>>> reported("C1CCCNCCNCCNCC1")
19.1
>>> reported("Cc1ccc(S(=O)(=O)NN=C2CCCCCCCCCCC2)cc1")
-1.8
>>> reported("O=C(Nc1ccc(Cl)cc1[N+](=O)[O-])N1CCN(c2ccccc2)CC1")
28.1
>>> reported("CCNCCNC(=O)c1ccc(I)cc1")
-10.8
>>> reported("CCCCC(CC)CSC[N+](C)(CC)CC (centres undefined)")
20.6
>>> reported("c1ccc(C2CCOCO2)cc1 (centres undefined)")
24.2
>>> reported("CCOc1ccc2nc(NC(=O)C(=O)C(C#N)CC(C)(C)C=O)sc2c1 (centres undefined)")
-28.1
>>> reported("CCC(CC)CC1CCCCC1=O (centres undefined)")
-7.65
>>> reported("CC1=CC2C(c3ccccc3)Nc3ccccc3N2C1=O (centres undefined)")
-6.45
>>> reported("NCCSC(O)(C(F)(F)F)C(F)(F)F")
23
>>> reported("CC(=O)c1cc(C)oc1C")
12.9
>>> reported("O=C(CO)C(O)C(O)C(O)CO (centres undefined)")
0.95
